B1: LINE1-mini (parent)
chain: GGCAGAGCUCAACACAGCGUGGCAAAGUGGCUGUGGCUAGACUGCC

# Variants of: B1
# Test Name: self-cleavage, relative activity (ratio to wild type); higher = more cleavage; in vitro, sequencing; the parent is a self-cleaving ribozyme
Readout: self-cleavage

Example entries begin here.
• G1C A16U = 0.02
• A11G A41G = 0.02
• U34A U38A = 0.17
• G22A G29A = 0.27
• A12G G21C = 0.01

Batch of 3 variants: report self-cleavage for each.
1. C15U C18U
2. G21A G30A
3. A16C G40A

[0.47, 1.73, 0.05]

Hi, could you look up self-cleavage for each item in my list?
1. U9A A26C
2. G27U C45U
3. G17U G44U
4. G2C C42A
5. A6C C8U
6. C13G A26G
7. G7U G40U
8. C13U G33A

1: 0.23; 2: 1.6; 3: 0.06; 4: 0.08; 5: 0.51; 6: 0.08; 7: 0.18; 8: 0.07
